Biological target: UniProtKB P25100
Sequence (P25100 whole entry): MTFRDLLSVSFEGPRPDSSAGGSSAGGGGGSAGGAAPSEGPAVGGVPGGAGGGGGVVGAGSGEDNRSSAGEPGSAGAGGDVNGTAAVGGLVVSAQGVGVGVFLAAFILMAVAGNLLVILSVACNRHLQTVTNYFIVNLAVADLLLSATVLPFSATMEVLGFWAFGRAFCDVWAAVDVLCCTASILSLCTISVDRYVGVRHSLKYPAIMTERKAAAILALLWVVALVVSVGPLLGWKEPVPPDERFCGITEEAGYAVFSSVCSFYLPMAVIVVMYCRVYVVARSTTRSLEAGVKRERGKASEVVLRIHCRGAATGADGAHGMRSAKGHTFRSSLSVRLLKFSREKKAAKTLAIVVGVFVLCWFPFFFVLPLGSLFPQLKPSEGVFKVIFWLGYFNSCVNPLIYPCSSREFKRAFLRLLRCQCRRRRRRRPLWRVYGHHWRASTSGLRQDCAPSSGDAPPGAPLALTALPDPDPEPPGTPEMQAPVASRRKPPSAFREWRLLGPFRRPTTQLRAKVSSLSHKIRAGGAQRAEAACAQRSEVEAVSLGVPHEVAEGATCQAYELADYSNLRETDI
Details: Compound concentration 10 µM
Description: PDSP Primary Binding target: ADRA1D - Compounds are tested at 10 uM concentration, plate are incubated at room temperature in the dark for 90 minutes. Reaction are stopped by vacuum filtration onto 0.3% polyethyleneimine soaked filter mats using Filtermate harvester. Scintilation cocktail is then melted onto microwave-dried filters on a hot plate and the radio activity is counted in Microbia counter.
Kind request: treat 20% as inclusive, so inhibition at 20% or higher is true (1), anything lower is false (0).

> print(dat)
                               smiles.record  discrete.label
 1  COc1ccccc1N1CCN(CCCCNC(=O)c2ccc3ccccc3c2)CC1        true (1)
 2  C/C(=N\NC(=O)[C@@H]1C(=O)NC[C@H]1c1ccccc1)c1cccc(Br)c1       false (0)
 3                  NC[C@H](O)c1ccc(O)c(O)c1        true (1)
 4  Cc1cc(NC(=O)NCCN2CCC(O)(Cc3ccccc3)CC2)c2ccccc2n1       false (0)
 5  CCc1ccc(OCc2ccccc2C(=O)Nc2ccc3nc(C)cc(N)c3c2)cc1        true (1)
 6  CCc1nn2c(C)cc(C)nc2c1Cc1ccc(-c2nnc(C3CCNCC3)o2)cc1       false (0)
 7  CC(C)[C@H](CO)Nc1nc(Nc2cccc(Cl)c2)c2ncn(C(C)C)c2n1       false (0)
 8     CCCCCNC(=N)N/N=C/c1c[nH]c2ccc(OC)cc12        true (1)
 9  N#Cc1c(N)nc(SCc2csc(-c3ccc(Cl)cc3)n2)c(C#N)c1-c1ccc(OCCO)cc1       false (0)
10  Cc1ccc(O)c([C@H](CCN(C(C)C)C(C)C)c2ccccc2)c1       false (0)
11  Cc1ccccc1N1CCN(S(=O)(=O)C[C@]23CC[C@H](C[C@@H]2NC(=O)[C@@H](N)CCS(C)(=O)=O)C3(C)C)CC1       false (0)
12  Cc1nc2sccn2c(=O)c1CCN1CCC(=C(c2ccc(F)cc2)c2ccc(F)cc2)CC1        true (1)
13  C[C@@H](NCCCc1cccc(C(F)(F)F)c1)c1cccc2ccccc12        true (1)
14  CO[C@@H]1COCC[C@@H]1N[C@@H]1CC[C@@](C(=O)N2CCc3ncc(C(F)(F)F)cc3C2)(C(C)C)C1       false (0)

FYI, the data here is from ChEMBL document CHEMBL5442219.
